# maps each entry to its inhibition at 0.1 µM
- measurementTarget: UniProt:P21397
- Sequence (P21397 whole entry): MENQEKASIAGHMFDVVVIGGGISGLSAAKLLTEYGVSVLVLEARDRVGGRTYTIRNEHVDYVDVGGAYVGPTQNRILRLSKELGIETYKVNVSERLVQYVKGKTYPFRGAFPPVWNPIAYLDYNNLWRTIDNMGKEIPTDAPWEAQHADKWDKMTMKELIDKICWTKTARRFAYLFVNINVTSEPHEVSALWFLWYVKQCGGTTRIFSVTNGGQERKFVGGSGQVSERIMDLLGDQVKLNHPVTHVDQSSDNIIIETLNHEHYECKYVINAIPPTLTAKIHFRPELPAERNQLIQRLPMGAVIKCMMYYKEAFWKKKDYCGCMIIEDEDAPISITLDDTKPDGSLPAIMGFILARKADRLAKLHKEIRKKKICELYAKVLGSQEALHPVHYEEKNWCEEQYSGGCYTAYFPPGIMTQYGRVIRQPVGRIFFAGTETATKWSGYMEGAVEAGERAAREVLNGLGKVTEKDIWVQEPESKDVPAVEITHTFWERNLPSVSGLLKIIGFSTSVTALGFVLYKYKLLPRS
- testSummary: Inhibition of human recombinant MAO-A at 0.1 uM using tyramine as substrate preincubated with enzyme for 30 mins followed by incubation with substrate for 30 mins by Amplex Red reagent based fluorometric method relative to control
- conditionNotes: 0.5 h, time 60 min
The reply should be a number in %, with the unit left off.

Please review the entries below; each comes with its answer.
C#CCN(C)CCCOc1ccc(Cl)cc1Cl [CLORGILINE]; 63.9
C=CCNc1nnc(SCC(=O)N(Cc2cccc([N+](=O)[O-])c2)c2ccc(F)cc2)s1; 43.2

So what's the measured inhibition at 0.1 µM for this one? CCCNc1nnc(SCC(=O)N(Cc2cccc([N+](=O)[O-])c2)c2ccc(F)cc2)s1
45.1
